tested on: OVCAR-4 ovarian; assay: NCI-60 one-dose screen, 48 h; conditions: 10 µM
This is part of a sample that, as a whole, favours compounds with a hit. Of some 83,000 tested, about 20% had one in any assay. Calls of active or inactive are those of the source. The calls were made as follows: active = growth percent below 10; inactive = the rest.
The categories you may choose from are active, inactive

MOLECULE	CLASS ASSIGNMENT
O=C(CBr)Nc1ccccc1	inactive

Req: Record request — test call for `O=C1C(=O)c2ccccc2-c2ccccc21`
Resp: active

Req: Record request — test call for CC1CCC2(OC1)OC1C(O)C3C4CCC5CC(OC6OC(CO)C(OC7OC(CO)C(O)C(OC8OCC(O)C(O)C8O)C7OC7OC(CO)C(O)C(OC8OC(CO)C(O)C(O)C8O)C7O)C(O)C6O)C(O)CC5(C)C4CCC3(C)C1C2C (stereo unspecified)
Resp: active

Req: Record request — test call for `O=[N+]([O-])c1ccc(N2CCOCC2)c2c1no[n+]2[O-]`
Resp: active

Req: Record request — test call for `CC(C)c1cc([N+](=O)[O-])cc([N+](=O)[O-])c1O`
Resp: inactive

Req: Record request — test call for CCOP(=O)(OCC)C(O)c1ccccc1Cl (stereo unspecified)
Resp: inactive

Req: Record request — test call for `COc1cc(/C=C/[N+](=O)[O-])cc(OC)c1OC`
Resp: inactive

Req: Record request — test call for `C/C1=C\[C@H](C)C[C@H](C)OC(=O)C[C@H](c2ccc(O)cc2)NC(=O)[C@@H](Cc2c(Br)[nH]c3ccccc23)N(C)C(=O)[C@H](C)NC(=O)[C@@H](C)C1`
Resp: active

Req: Record request — test call for CC[C@@H](C)[C@@H]1NC(=O)C(NC(=O)C(CC(C)C)N(C)C(=O)C2CCCN2C(=O)C(C)O)C(C)OC(=O)C(Cc2ccc(OC)cc2)N(C)C(=O)C2CCCN2C(=O)C(CC(C)C)NC(=O)C(C)C(=O)C(C(C)C)OC(=O)C[C@H]1O (stereo partly specified)
Resp: active

Req: Record request — test call for C#CC1(O)CCC(C(C)(C)C)CC1 (stereo unspecified)
Resp: inactive

Req: Record request — test call for `COS(=O)(=O)c1ccccc1`
Resp: inactive

----------
test system: HOP-92 NSCLC; experiment: NCI-60 one-dose screen, 48 h; conditions: 10 µM
The panel holds about 83,000 compounds, 20% with a hit somewhere; the sample as a whole holds those more often. Active and inactive are the calls of the source. How the source made its calls: active means growth percent below 10; inactive means the rest.
The categories you may choose from are Y (active), N (inactive)

Req: Record request — test call for `COS(=O)(=O)c1ccccc1`
Resp: N

Req: Record request — test call for `COc1cc(/C=C/[N+](=O)[O-])cc(Br)c1OC`
Resp: N

Req: Record request — test call for COC12c3c(C)cc(O)c4c(=O)occ(c34)C(=O)C1C13COC(=O)c4c(O)cc(C)c(c41)C(=O)C2C3OC(C)=O (stereo not drawn)
Resp: Y

----------
system: NCI-H460 lung; test: NCI-60 one-dose screen, 48 h (100 = growth as untreated, 0 = no growth, -100 = all killed); conditions: 10 µM
About 83,000 compounds went through this panel and 20% of them were active in at least one assay; those are over-represented in the sample as a whole.
QUANTITY: growth (%)
Give bare numbers, in %.

Record excerpt, results attached:
MOLECULE	QUANTITY	ENDPOINT RESULT
COc1cc([N+](=O)[O-])c2ncccc2c1[N+](=O)[O-]	growth	87.3
COc1cc2c(c(OC)c1OC)-c1ccc(O)c(=O)cc1[C@@H](NC(C)=O)CC2	growth	24.6
COC(C(=O)C(O)C(C)O)C1Cc2cc3cc(OC4CC(OC(C)=O)C(OC5CC(O)C(OC)C(C)O5)C(C)O4)cc(O)c3c(O)c2C(=O)C1OC1CC(OC2CC(OC3CC(C)(O)C(OC(=O)C(C)C)C(C)O3)C(O)C(C)O2)C(O)C(C)O1 (configuration not stated)	growth	-10.2
CC(C)C1(NC(=O)C2CC3c4cccc5[nH]cc(c45)CC3N(C)C2)OC2(O)C3CCCN3C(=O)C(Cc3ccccc3)N2C1=O (configuration not stated)	growth	109
O=[N+]([O-])c1ccc(Br)c([N+](=O)[O-])c1	growth	94.8

Provide reported growth for each item, in the same order as listed.
1. COC(=O)C1C(O)C(C)C(O)C(C)/C=C\C=C(C)C(=O)Nc2c(C)c(OC(C)=O)c3c(c2O)C(=O)C(C)=C2OCOC(=C23)C(C)=CC(C)(O)C(O)C(C)C1O (configuration not stated)
2. NC(=O)c1cc([N+](=O)[O-])c(Cl)c([N+](=O)[O-])c1

Resp:
[111, 107]

Attribution: PubChem BioAssay (NCI)
